# reported %Inh; entries follow
System: DMPK2;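 also: KINOMEscan kinase panel screen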
Construct: gene CDC42BPG
Settings: concentration: 1 μM, replicates: in singlicate; n = 1

Field: example entries. Status: answers known.
Cc1nnc(-c2ccc3ncc(-c4ccc(S(C)=O)cc4)n3c2)o1 (stereo not drawn)	0%
Cc1nnc(-c2ccc3occ(-c4ccc(C(C)O)cc4)c3c2)o1 (stereo not drawn)	3%
NS(=O)(=O)CCc1cccc(Nc2nccc(-c3c(-c4cccc(NC(=O)c5c(F)cccc5F)c4)nn4ccccc34)n2)c1	100%
[2H]C([2H])(c1cccc(C(F)(F)F)c1C)n1ccn2c(=O)nc(N3CCOCC3)cc12	0%
COc1ccc(COc2cc(-n3cnc4ccccc43)sc2C(N)=O)cc1	7%

Measured %Inh, "CC(C)(C)n1cnc2c(N)ncnc21" : 0%
